Assay: fission yeast growth modulation, primary screen, strain 972, OD600, 24 h, no modulator (AID 1090);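 further: basal condition with compound alone and no growth modifier present; test concentration not given here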
Conditions: S. pombe 972 growth, higher = more signal, called active from +8 up or from −8 down
Entry flag: Yes if z-score reaches -0.3; No if it does not.

{"compound": "OC[C@H]1O[C@H](C#Cc2ccccc2)C=C[C@@H]1O", "group.label": "No"}
{"compound": "CC(C)=CCCC(C)=CCON=C1C[C@@H](O)[C@@H](O)[C@@H]2[C@@H]3C(=O)N(c4cccc(Oc5ccccc5)c4)C(=O)[C@@H]3CC[C@H]12", "group.label": "Yes"}

Task: Hello, I need to know if C[C@@H](c1ccccc1)N1C(=O)[C@H]2[C@H]3[C@H](O)[C@H](O)CC(=NNC(=O)OCc4ccccc4)[C@@H]3CC[C@H]2C1=O has measured z-score not below -0.3. Thanks!
Result: Yes

Task: Exam item: decide whether the reported z-score for CCOC(=O)[C@H](Cc1ccccc1)NC(=O)CCC1CC(OC(=O)NCCc2ccc(F)cc2)CC2(CCCC(COC(=O)NCCC(C)C)O2)O1 (stereo not given in full) is at least -0.3.
Result: Yes

Task: Given CC(CCN1CCc2nc(-c3ccccc3)c(-c3ccccc3)cc2C1)=NO[C@@H](C)c1cc(-c2c(C)cc(C)cc2C)no1 , state whether its z-score is at least -0.3.
Result: No

Task: Decide: z-score of COC(=O)[C@@H]1CC[C@H](C)[C@@H](c2ccc(Br)cc2)N1C[C@H](O)CN=[N+]=[N-] >= -0.3?
Result: No

Task: Has O=C(NN=C1C[C@@H](O)[C@@H](O)[C@@H]2[C@@H]3C(=O)N(Cc4ccc5c(c4)OCO5)C(=O)[C@@H]3CC[C@@H]12)OCc1ccccc1 a recorded z-score greater than or equal to -0.3?
Result: No

Task: Is it the case that CC(C)[C@@H](OCc1ccccc1)[C@H](C)C=NOC[C@@H](O)[C@H]1O[C@@H]2OC(C)(C)O[C@@H]2[C@H]1O has z-score reaching or exceeding -0.3?
Result: Yes

Task: I'd appreciate it if you could say whether COc1ccc(COC(=O)NN=C2C[C@@H](O)[C@@H](O)[C@@H]3[C@@H]4C(=O)N(C5CCCCC5)C(=O)[C@@H]4CC[C@@H]23)cc1 has z-score at least equal to -0.3.
Result: No

Task: API: above_or_equal(metric=z-score, cutoff=-0.3) for item C[C@]12CCC3c4ccc(OCC5CO5)cc4CCC3C1CC[C@@H]2O (stereo not given in full)
Result: No

Task: State whether the measured z-score reaches -0.3, counting equality as reaching it, for CCOC(=O)CCN1C(=O)[C@H]2[C@H]3[C@H](O)[C@H](O)CC(=NOCC=C(C)CCC=C(C)C)[C@H]3CC[C@H]2C1=O
Result: Yes

Task: Kindly determine if z-score recorded for CC(=O)OC[C@H]1O[C@H](CCON=C(C)C)C=C[C@@H]1OC(C)=O is above or exactly -0.3.
Result: Yes

Task: Is the recorded value of z-score equal to or greater than -0.3 for this compound? COC(=O)[C@H](C)NC(=O)CCC1CC(OC(=O)NCCc2ccc(F)cc2)CC2(CCCC(COC(=O)NCCOc3ccccc3)O2)O1 (stereo not given in full)
Result: Yes

Task: Dear colleague, could you confirm whether CCc1cc2c(nc1CC)CCN(CCC(C)=NO[C@@H]1O[C@H](COC(C)=O)[C@@H](OC(C)=O)[C@H](OC(C)=O)[C@H]1OC(C)=O)C2 has z-score at or above -0.3?
Result: No

Task: Evaluate CCN1C(=O)[C@H]2[C@H]3[C@H](O)[C@H](O)CC(=NOC[C@@H](O)COCc4ccco4)[C@H]3CC[C@H]2C1=O : z-score at minimum -0.3?
Result: Yes

---

Assay: small-molecule microarray binders of probe aDKK1, primary screen, biochemical, biotinylated probe, 635/667 nm fluorescence (AID 1099);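 further: score merges 667nm spot fluorescence with signal to noise across triplicate slides; reference of the scale not given here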
Conditions: higher = more signal
measurement.type: composite z-score
Write no unit; give the number alone.

Task: Give the measured composite z-score of O=C1[C@H]2[C@H]3[C@H](O)[C@H](O)CC(=NOC[C@@H](O)COCc4ccco4)[C@@H]3CC[C@H]2C(=O)N1Cc1ccccc1 .
Result: -0.316

Task: # get_value(readout='composite z-score', item= COC(=O)C1=C(C)N(Cc2ccccc2)C2=C3C(=O)OCC[C@@H]3[C@@](O)(C(=O)OC)C(=O)N2[C@@H]1c1ccccc1 )
Result: -0.117

Task: Which composite z-score is listed for CC(CCC(=O)OC[C@H]1O[C@H](C#Cc2ccccc2)C=C[C@@H]1Oc1ccc(C)cc1)=NO[C@@H](C)c1cc(-c2c(C)cc(C)cc2C)no1 ?
Result: -0.293

Task: Look up composite z-score for this molecule: CC(=O)OC[C@H]1O[C@H](CC=NO[C@H](C)c2cn([C@@H]3COC[C@H]3O)nn2)C=C[C@@H]1OC(C)=O
Result: -0.185

Task: Give the measured composite z-score of CCOC(=O)[C@H](CC(C)C)NC(=O)CCC1CC(OC(=O)NCCc2ccc(F)cc2)CC2(CCCC(COC(=O)NCc3cccc4ccccc34)O2)O1 (some centres undefined) .
Result: -0.0464

Task: composite z-score lookup needed for CCCNC(=O)OC[C@H]1O[C@H](CCON=C2C[C@@H](O)[C@@H](O)[C@@H]3[C@@H]4C(=O)N(CC)C(=O)[C@@H]4CC[C@@H]23)C=C[C@@H]1Oc1ccc(OC)cc1 , thanks.
Result: -0.04

Task: // composite z-score lookup, key: CC(C)[C@H](NC(=O)OC(C)(C)C)[C@@H](O)CC(=O)C(C)(C)C
Result: -0.268

Task: Consider the molecule COC(=O)[C@H](C)NC(=O)CCC1CC(OC(=O)NCc2cccc3ccccc23)CC2(CCCC(COC(=O)NCCOc3ccccc3)O2)O1 (some centres undefined) and give its measured composite z-score.
Result: -0.357

Task: composite z-score lookup needed for COC(=O)[C@H](C)NC(=O)CCC1CC(OC(=O)NCc2cccc3ccccc23)CC2(CCCC(COC(=O)NCCCN3CCCC3=O)O2)O1 (some centres undefined) , thanks.
Result: -0.102

Task: Please give the measured composite z-score for this molecule: C[C@H]1CC[C@H]2C(=O)N[C@H](Cc3ccccc3)C(=O)N2[C@@H]1c1ccccc1
Result: 0.176

Task: Sample CC(=O)OC[C@H]1O[C@H](CCON=C(C)CCN2CCCc3nc(C)c(C)cc32)C=C[C@@H]1OC(C)=O — what was its composite z-score?
Result: -0.108

Task: Please look up its composite z-score: CC(CCN1CCCCc2nc(C)c(C)cc21)=NO[C@@H](C)c1cc(-c2c(C)cc(C)cc2C)no1
Result: -0.422

Task: Query: composite z-score; subject: CC(CCC(=O)OC[C@H]1O[C@H](C#Cc2ccccc2)C=C[C@@H]1Oc1ccc(C)cc1)=NOC(C)CN1CCCc2nc(C)c(C)cc21 (some centres undefined)
Result: -0.143

Task: composite z-score lookup needed for CCN1C(=O)[C@H]2[C@H]3[C@H](O)[C@H](O)CC(=NO[C@@H]4O[C@H](COC(C)=O)[C@@H](OC(C)=O)[C@H](OC(C)=O)[C@H]4OC(C)=O)[C@@H]3CC[C@H]2C1=O , thanks.
Result: 0.0594

---

Tested on: Human papillomavirus type 1a protein E7 (residues 44-93)
Test: HPV1a E7 fragment binders on microarrays, primary screen, biochemical, small-molecule microarray, residues 44-93, 635 nm fluorescence (AID 1108);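 further: E7 fragment applied at 1 µg/mL in TBST for 1 h at 4 C; score combines spot fluorescence with its signal to noise ratio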
Settings: small-molecule microarray binding, fluorescence 635 nm; higher = more signal
If the reported composite z-score equals or exceeds 0.4, assign fulfilled. If not, assign not fulfilled.

Here's what some known entries look like.
{"compound": "CC(C)=CCCC(C)=CCON=C1C[C@@H](O)[C@@H](O)[C@@H]2[C@@H]3C(=O)N([C@@H](C)c4ccccc4)C(=O)[C@@H]3CC[C@@H]12", "group.label": "not fulfilled"}
{"compound": "CO[C@H]1C[C@@H]2C[C@H](O)CC(CC(=O)O[C@@H](C=CCC(C)C)C[C@@H]3CC[C@H](C)[C@@H](C1)O3)O2", "group.label": "fulfilled"}
{"compound": "COc1ccc(O[C@H]2C=C[C@@H](C#Cc3ccccc3)O[C@@H]2CO)cc1", "group.label": "not fulfilled"}
{"compound": "O=C(NN=C1C[C@@H](O)[C@@H](O)[C@@H]2[C@@H]3C(=O)N(Cc4ccc5c(c4)OCO5)C(=O)[C@@H]3CC[C@@H]12)OCc1ccccc1", "group.label": "not fulfilled"}
{"compound": "O=C1[C@H]2[C@H]3[C@H](O)[C@H](O)CC(=NOCc4ccccc4)[C@H]3CC[C@H]2C(=O)N1C1CCCCC1", "group.label": "fulfilled"}

Task: Confirm if composite z-score reported for the compound CO[C@H]1COC(=O)[C@H](C)COC(=O)[C@H](C)NC(=O)CC=C[C@H]1C is 0.4 or above.
Result: fulfilled

Task: API: above_or_equal(metric=composite z-score, cutoff=0.4) for item CCCCOC(OCCCC)C(O)CSc1ccc2ccccc2c1 (stereo unspecified)
Result: fulfilled

Task: Could you verify whether the entry COc1ccc(OC[C@@H]2CC3[C@@H](c4ccc(Br)cc4)[C@H](C)CC[C@H]3C(=O)O2)cc1 (stereo partly specified) shows composite z-score of no less than 0.4?
Result: not fulfilled

Task: Is composite z-score for CON=C(C)CCN1CCCCc2nc(C)c(C)cc21 at or above 0.4?
Result: not fulfilled

Task: Threshold query (composite z-score >= 0.4) on CCCNC(=O)OC[C@H]1O[C@H](CCON=C2C[C@@H](O)[C@@H](O)[C@@H]3[C@@H]4C(=O)N(CC)C(=O)[C@@H]4CC[C@@H]23)C=C[C@@H]1Oc1ccc(OC)cc1
Result: fulfilled

Task: Does the reported composite z-score for O=C1[C@H]2[C@H]3[C@H](O)[C@H](O)CC(=NOC[C@@H](O)COCc4ccco4)[C@@H]3CC[C@H]2C(=O)N1Cc1ccccc1 fall at or above the 0.4 mark?
Result: fulfilled

Task: Is reported composite z-score greater than or equal to 0.4 here: COc1ccc(COC(=O)NN=C2C[C@@H](O)[C@@H](O)[C@@H]3[C@@H]4C(=O)N([C@@H](C)c5ccccc5)C(=O)[C@@H]4CC[C@@H]23)cc1
Result: not fulfilled

Task: Determine whether measured composite z-score meets or exceeds 0.4 for C[C@@H]1CC[C@H]2C(=O)OC(CN3C(=O)c4ccccc4C3=O)CN2[C@H]1c1ccc(Br)cc1 (stereo partly specified)
Result: fulfilled

Task: Is composite z-score for COC(=O)CC=C[C@@H](C)[C@@H](C=NOC(C)CN1CCCCc2nc(C)c(C)cc21)OC (stereo partly specified) at or above 0.4?
Result: fulfilled

Task: Evaluate CO[C@@H]1COC(=O)[C@@H]2CCCN2C(=O)[C@@H](C)COC(=O)CCC[C@H]1C : composite z-score at minimum 0.4?
Result: not fulfilled
